- TARGET OR TEST SYSTEM: T1, murine heparanase (Mus musculus, UniProt Q6YGZ1)
- T1 construct: made in house; host or cells: Hek293 cells (conditioned medium), inferred for the ELISA
- T1 sequence (Q6YGZ1 28-535): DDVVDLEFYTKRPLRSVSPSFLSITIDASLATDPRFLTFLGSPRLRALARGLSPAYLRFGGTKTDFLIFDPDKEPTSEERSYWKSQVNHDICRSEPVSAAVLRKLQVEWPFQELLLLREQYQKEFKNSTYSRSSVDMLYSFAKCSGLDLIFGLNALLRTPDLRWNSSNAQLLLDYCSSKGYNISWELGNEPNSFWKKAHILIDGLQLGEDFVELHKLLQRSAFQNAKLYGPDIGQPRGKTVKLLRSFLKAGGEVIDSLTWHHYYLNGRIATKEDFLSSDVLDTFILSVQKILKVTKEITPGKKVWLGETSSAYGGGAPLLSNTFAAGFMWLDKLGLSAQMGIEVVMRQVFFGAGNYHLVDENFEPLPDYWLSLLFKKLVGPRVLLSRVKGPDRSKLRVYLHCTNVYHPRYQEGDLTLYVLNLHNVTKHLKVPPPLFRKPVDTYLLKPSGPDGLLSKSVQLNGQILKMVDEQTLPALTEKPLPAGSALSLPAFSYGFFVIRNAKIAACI
- RUN DESCRIPTION: Cross species capture ELISA, murine heparanase
- Format: binding
- CONDITION INFO: min 0.06, max 0.9 OD units

# MOLECULE, Binding to heparanase Mouse
rows = [
    ("10E9.1: fully human anti-heparanase monoclonal antibody, G2κ; VH SEQ ID NO 2, VL SEQ ID NO 4; ATCC PTA-9489 (antibody, listed as Homo Sapiens, V domains shown, fully human anti-heparanase monoclonal antibody, G2κ; ATCC PTA-9489) VH: QVQLVQSGAEVKKPGASVKVSCKVSGYSLTELSIHWVRQAPGKGLEWMGGFDPEDGEIIFAQKFQGRVTLTEDISLDTAYMEVSSLRSEDTAVYYCATEGHDSGDYVGYYYYGLDVWGQGTTVTVSS VL: DIQMTQSPSSLSASVGDRVTITCRASQDIRNFLAWYQQKPGKLPKLLIYAASTLQSGVPSRFSGSGSGTDFTLTISSLQPEDVASYYCQSHNSVPFTFGPGTKVDIR", "0.49 OD units"),
    ("7B9.1: human anti-heparanase monoclonal antibody, G4λ; VH SEQ ID NO 22, VL SEQ ID NO 24 (antibody, listed as Homo Sapiens, V domains shown) VH: QVQLVESGGGVVQPGRSLRLSCAASGFTFSSYGMHWVRQAPGKGLEWVAVIWYDGSNKYYADSVKGRFTISRDNSKNTLYLQMNSLRAEDTAVYYCAREGAPYSSSDAFDIWGQGTMVTVSS VL: QSVLTQPPSVSGAPGQRVTISCTGSSSNIGANYDVHWYQQLPGTAPKLLIYGDNNRPSGVPDRFSGSKSGTSASLAITGLQAEDEADYYCQSYDSSLSGSVFGGGTKLTVL", "0.58 OD units"),
    ("16G1.1: human anti-heparanase monoclonal antibody, G4κ; VH SEQ ID NO 14, VL SEQ ID NO 16 (antibody, listed as Homo Sapiens, V domains shown) VH: QVQLVESGGGVVQPGRSLRLSCAASGFTFSSYGMHWVRQAPGKGLEWVAVIWYDGSNKYYADSVKGRFTISRDNSKNTLNLQMNSLRAEDTAVYYCGRDPGTYHYYYHGMDVWGQGTTVTVSS VL: YIVMTQSPLSLPVTPGEPASISCRSSQSLLHSNGYNFLDWYLQKPGQSPQLLIYLGSNRASGVPDRFSGSGSGTDFTLKINRVEAEDVGVYYCMQALQTPITFGQGTRLEIK", "0.61 OD units"),
]
